Assay: Tem pharmacokinetics in whole blood
Assay type: in vivo, human
Conditions: human, whole blood, iv, 60 mg/m^2, AUClast, cycle 1, Tem 60 mg/m^2 IV weekly with VPA, 0 to 24 hours post dose, median, N = 2
value_type: AUC(0-t) (ng·h/mL)
Express your answer in ng·h/mL, writing the number without its unit.

// CO[C@H]1C[C@@H]2CC[C@@H](C)[C@@](O)(O2)C(=O)C(=O)N2CCCC[C@H]2C(=O)O[C@H]([C@H](C)C[C@@H]2CC[C@@H](OC(=O)C(C)(CO)CO)[C@H](OC)C2)CC(=O)[C@H](C)/C=C(\C)[C@@H](O)[C@@H](OC)C(=O)[C@H](C)C[C@H](C)/C=C/C=C/C=C/1C : AUC(0-t) value = 8330
